- MEASUREMENT DESCRIPTION: The drug is tested on Z-013 corresponding to rabbit gut metagenome with ENA study accession number: PRJEB37062 and ENA sample accession number: ERS12561813 for biotransformation under anaerobic condition. The drug concentrations were measured over 9 timepoints collected between 0 and 24 hours of incubation by liquid-chromatography-coupled mass spectrometry (LC–MS); note: call rule not given here
- CONDITION CONTEXT: 2 µM
QUANTITY MEASURED: Bacterial Biotransformation

• CCOc1cc(CC(=O)N[C@@H](CC(C)C)c2ccccc2N2CCCCC2)ccc1C(=O)O [REPAGLINIDE] = Compound NOT metabolized
• CCc1oc2ccccc2c1C(=O)c1cc(Br)c(O)c(Br)c1 = Compound NOT metabolized
